These measurements were taken from ChEMBL document CHEMBL6127048.

- assay-details: Solubility of compound in water by HPLC analysis
- Type: physicochemical
List of log10 solubility values.
Units before log transform: mg/mL; reported quantity: solubility; transform: log10.

CC(C)[C@]12O[C@H]1[C@@H]1O[C@]13[C@]1(O[C@H]1C[C@H]1C4=C(CC[C@@]13C)C(=O)OC4)[C@@H]2OC(=O)NCC1CCCN1 (stereo partly specified) ... 0.95
CC(C)[C@]12O[C@H]1[C@@H]1O[C@]13[C@]1(O[C@H]1C[C@H]1C4=C(CC[C@@]13C)C(=O)OC4)[C@@H]2OC(=O)NC1CCCCC1N (stereo partly specified) ... 0.84
CC(C)[C@]12O[C@H]1[C@@H]1O[C@]13[C@]1(O[C@H]1C[C@H]1C4=C(CC[C@@]13C)C(=O)OC4)[C@@H]2OCOP(=O)([O-])[O-].[Na+].[Na+] [MINNELIDE] ... 1.97
CNCCN(C)C(=O)O[C@@H]1[C@@]2(C(C)C)O[C@H]2[C@@H]2O[C@]23[C@]12O[C@H]2C[C@H]1C2=C(CC[C@@]13C)C(=O)OC2 ... 1.49

Query: What log10 solubility value was documented for this compound, "CC(C)[C@]12O[C@H]1[C@@H]1O[C@]13[C@]1(O[C@H]1C[C@H]1C4=C(CC[C@@]13C)C(=O)OC4)[C@@H]2OC(=O)NCCN" ?
Reply: 1.10

Query: Endpoint output: log10 solubility of CC(C)[C@]12O[C@H]1[C@@H]1O[C@]13[C@]1(O[C@H]1C[C@H]1C4=C(CC[C@@]13C)C(=O)OC4)[C@@H]2OC(=O)CCC(=O)[O-].[Na+] [OMTRIPTOLIDE SODIUM] . Value?
Reply: 0.14

----------
- assay-details: AUC (0 to infinity) in Kunming mouse at 1 mg/kg, iv measured upto 48 hrs by LC/MS analysis
- Type: ADME, organism-based
- run-parameters: in vivo
attribute-measured: AUC(0-inf) (ng·h/mL)
Give the value in ng·h/mL but do not write ng·h/mL after it.

Query: I'd like to know its AUC(0-inf). The compound in question is "CNCCN(C)C(=O)O[C@@H]1[C@@]2(C(C)C)O[C@H]2[C@@H]2O[C@]23[C@]12O[C@H]2C[C@H]1C2=C(CC[C@@]13C)C(=O)OC2"
Reply: 1100

----------
- assay-details: Stability in mouse plasma assessed as half life measured upto 24 hrs by HPLC analysis
- Format: ADME, cell-free
attribute-measured: half-life (h)
Write it as a number; the unit h goes unstated.

Guide cases for half-life, answers given:
CC(C)[C@]12O[C@H]1[C@@H]1O[C@]13[C@]1(O[C@H]1C[C@H]1C4=C(CC[C@@]13C)C(=O)OC4)[C@@H]2OC(=O)NCC1CCCN1 (some centres undefined) ... 1.79
CC(C)[C@]12O[C@H]1[C@@H]1O[C@]13[C@]1(O[C@H]1C[C@H]1C4=C(CC[C@@]13C)C(=O)OC4)[C@@H]2OC(=O)NC1CCCCC1N (some centres undefined) ... 1.62
CC(C)[C@]12O[C@H]1[C@@H]1O[C@]13[C@]1(O[C@H]1C[C@H]1C4=C(CC[C@@]13C)C(=O)OC4)[C@@H]2OC(=O)NCCN ... 27.3

In the following, a different molecule is considered.
Query: Quick one: half-life for "CNCCN(C)C(=O)O[C@@H]1[C@@]2(C(C)C)O[C@H]2[C@@H]2O[C@]23[C@]12O[C@H]2C[C@H]1C2=C(CC[C@@]13C)C(=O)OC2" ?
Reply: 17
